Recorded values, source patent US10301279B2.

- Tgt: Hsp70 (Homo sapiens)
- Construct: purchased Enzo Life Sciences ADI-ESP-550-D
- Sequence (P0DMV8 whole entry): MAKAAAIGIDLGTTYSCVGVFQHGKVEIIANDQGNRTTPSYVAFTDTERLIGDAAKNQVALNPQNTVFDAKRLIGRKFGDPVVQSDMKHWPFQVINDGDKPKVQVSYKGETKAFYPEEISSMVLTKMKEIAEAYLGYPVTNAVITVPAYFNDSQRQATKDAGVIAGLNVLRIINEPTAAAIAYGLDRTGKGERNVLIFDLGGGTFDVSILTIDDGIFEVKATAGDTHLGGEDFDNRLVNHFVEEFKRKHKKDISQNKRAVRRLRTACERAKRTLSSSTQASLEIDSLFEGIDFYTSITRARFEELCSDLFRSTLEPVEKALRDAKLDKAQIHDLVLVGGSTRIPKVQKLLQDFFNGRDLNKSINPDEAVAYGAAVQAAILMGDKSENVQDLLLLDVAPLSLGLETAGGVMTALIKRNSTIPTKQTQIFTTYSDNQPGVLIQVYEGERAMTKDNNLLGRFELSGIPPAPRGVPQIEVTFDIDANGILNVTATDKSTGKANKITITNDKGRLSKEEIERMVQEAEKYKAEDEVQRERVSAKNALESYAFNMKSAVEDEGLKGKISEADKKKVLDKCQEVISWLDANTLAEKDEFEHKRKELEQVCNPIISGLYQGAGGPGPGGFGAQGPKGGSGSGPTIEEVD
- Procedure text: Measurement of affinity for Hsp70 (BIACORE T100, CM5 chip)
- Type: binding
- Condition info: steady state model, 25° C., PBS containing 5% DMSO
pKd: −log10 of the molar value.
Value type: pKd

For orientation, consider the following solved cases.
>>> measured_result("CN(C(=O)OC(C)(C)C)C1CCN(c2cc(Cl)ncn2)CC1")
6.28
>>> measured_result("CN(C(=O)OC(C)(C)C)C1CCN(c2ccnc(Cl)n2)CC1")
6.61
>>> measured_result("COc1ccnc(N2CCC(N(C)C(=O)Cn3cncn3)CC2)n1")
6.36

(1) CN(C(=O)Cn1ccnc1)C1CCN(c2nccc(Cl)n2)CC1
(2) CSc1nccc(N2CCC(N(C)C(=O)O[C@H]3CCN(S(=O)(=O)c4cccs4)C3)CC2)n1
(3) CN(C(=O)OC(C)(C)C)C1CCN(c2nccc(Cl)n2)CC1
(4) CSc1nccc(N2CCC(N(C)C(=O)OC(C)(C)C)CC2)n1
Lookup: Provide the items ranked by increasing pKd. Response format: the labels, sorted as the prompt asks.
Found: 4, 3, 2, 1
